Molecular target: T1, Human GREM1 (Homo sapiens, UniProt O60565)
T1 construct: His; purchased ACRO
T1 sequence (O60565 25-184): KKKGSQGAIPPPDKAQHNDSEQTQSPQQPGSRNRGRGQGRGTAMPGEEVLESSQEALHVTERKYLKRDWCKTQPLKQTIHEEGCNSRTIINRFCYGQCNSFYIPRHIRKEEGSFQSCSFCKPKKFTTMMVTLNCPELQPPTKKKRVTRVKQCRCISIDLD
Test: Binding affinity to human GREM1 through ELISA
Conditions: Table 17
Measured EC50 of binding to hGremlin-his by item
Return type: number; implicit unit ng/mL.

molecule | unitsLabel | EC50 of binding to hGremlin-his
Hu14E3_HaLa: humanized 14E3, heavy chain variable region SEQ ID NO: 7, light chain variable region SEQ ID NO: 8; antibody used in the examples (antibody, V domains shown) VH: QVQLVQSGSELKKPGASVKVSCKASGYTFTTYGMAWMRQAPGQGLEWMGWINTLSGEPTYADDFKGRFVFSLDTSVSTAYLQISSLKAEDTAVYYCAREPMDYWGQGTMVTVSS VL: DVVMTQSPLSLPVTLGQPASISCKSSQSLLDSDGKTYLSWLQQRPGQSPRRLIYLVSKLDSGVPDRFSGSGSGTDFTLKISRVEAEDVGVYYCWQGAHFPLTFGQGTKLEIK | ng/mL | 6.9

Now take the following molecule into account.
// EC50 of binding to hGremlin-his value for Hu14E3_HbLa (antibody, human IgG1, V domains shown, also called humanized 14E3) VH: QIQLVQSGSELKKPGASVKVSCKASGYTFTTYGMAWMRQAPGQGLEWMGWINTLSGEPTYADDFKGRFAFSLDTSVSTAYLQISSLKAEDTAVYYCAREPMDYWGQGTMVTVSS VL: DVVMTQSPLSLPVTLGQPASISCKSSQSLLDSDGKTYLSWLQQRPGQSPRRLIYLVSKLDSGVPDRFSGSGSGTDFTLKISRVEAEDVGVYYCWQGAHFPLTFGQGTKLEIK : 6.0
